- Tested on: LXFL 529 NSCLC
- testMethodNotes: NCI tumour cell line growth inhibition, 48 h
Readings of TGI for the listed molecules

Value lookup for TGI; key = COc1ccc(/C=C2\CCC(CCN(C)C)(C3=CCCC3)C2=O)cc1Br (stereo not given) 15.8 µM

Value lookup for TGI; key = `CC(=O)O[C@@]1(C)[C@@H](C)C(=O)O[C@@H]2CCN3CC=C(COC(=O)[C@]1(C)O)[C@H]23` > 100 µM

Value lookup for TGI; key = `Cc1cccc(C(C)(C)C)c1NC(=O)CCc1nc(=S)[nH][nH]1` > 100 µM

Value lookup for TGI; key = `C=CCN1/C(=C2\SC(=S)N(c3ccc(C)cc3)C2=O)Sc2c1nc[nH]c2=O` > 100 µM

Others:
Value lookup for TGI; key = `CCOC(=O)c1cnc2sc3ccc4ccccc4c3n2c1=O` > 100 µM

* * *

Readings of TGI for the listed compounds
- System: MDA-MB-435
- testMethodNotes: NCI tumour cell line growth inhibition, 48 h

Value lookup for TGI; key = `CO/N=C(\COc1ccc2oc(-c3ccccc3)cc(=O)c2c1)c1ccc(OC)cc1` 36.9 µM

Value lookup for TGI; key = O=C(NC(Cc1cnc[nH]1)C(=O)N1CCCC1)C1CCCC1 (stereo not drawn) > 100 µM

Value lookup for TGI; key = `ON[C@H]1C[C@@H](n2cnc3c(NC4CC4)ncnc32)[C@H](O)[C@@H]1O` > 100 µM

Others:
Value lookup for TGI; key = Cc1ccc(OCC2OC(n3cnc4c(Cl)nc(Cl)nc43)CC2Oc2ccc(C)cc2)cc1 (stereo not drawn) 5.48 µM

Value lookup for TGI; key = `Oc1ccc(C2c3ccccc3Oc3ccccc32)c2cccnc12` > 100 µM

* * *

Readings of TGI for the listed compounds
- Tested on: SF-268 CNS
- testMethodNotes: NCI tumour cell line growth inhibition, 48 h

Value lookup for TGI; key = CCOC(=O)C(CC/C=C\c1ccccc1)N1CCC[C@H]1C(=O)OC (some centres not stated) > 100 µM

Others:
Value lookup for TGI; key = `C/C(=C\c1cc(C(F)(F)F)n(-c2ccc(N)cc2)n1)[C@@H]1C[C@@H]2O[C@]2(C)CCC[C@H](C)[C@H](O)[C@@H](C)C(=O)C(C)(C)[C@@H](O)CC(=O)O1` > 11.1 µM

Value lookup for TGI; key = `Cc1cccc(C(C)(C)C)c1NC(=O)CCc1nc(=S)[nH][nH]1` > 100 µM

Value lookup for TGI; key = `O=C1/C(=C/c2ccc(Cl)cc2)CCC/C1=C\c1ccc(Cl)cc1` 12.7 µM

Value lookup for TGI; key = `CCOC(=O)c1c(C)n(C)c2c1cc(O)c1[nH]c3c(c12)CCCC3` 21.8 µM

* * *

- Tested on: MALME-3M melanoma
- testMethodNotes: NCI tumour cell line growth inhibition, 48 h
experimentalEndpoint: GI50

Value lookup for GI50; key = `O=C(O)c1c(=O)cccc2ssc12` 2.22 µM

Value lookup for GI50; key = `CN(CC(=O)Nc1nc2ccccc2[nH]1)S(=O)(=O)c1ccc(Cl)cc1` > 100 µM

Others:
Value lookup for GI50; key = `COC(=O)c1cc2c3ccccc3[nH]c2c2sccc12` 29.3 µM

* * *

- Test system: EKVX NSCLC
- testMethodNotes: NCI tumour cell line growth inhibition, 48 h; in the data active means GI50 below about 0.43 µM; inactive means the rest
Answer with one of the outcomes active, inactive

Write down the call the test reported for this compound. Item: `N#C/C(=C\c1ccc(Br)cc1)n1nnc2cc(Cl)c(Cl)cc21` inactive

Write down the call the test reported for this compound. Item: `[N-]=[N+]=NCCCn1c2c(c3ccc([N+](=O)[O-])cc3c1=O)C(=O)c1cc(F)ccc1-2` inactive

Write down the call the test reported for this compound. Item: `Cc1cn2c(/C=N/N=C(N)N)c(-c3ccccn3)nc2s1` inactive

Write down the call the test reported for this compound. Item: `NS(=O)(=O)NCCNc1nonc1C(=Nc1ccc(F)c(Br)c1)NO` inactive

Write down the call the test reported for this compound. Item: C=C(CO)[C@@H]1CC[C@]2(COC3CCCCO3)CC[C@]3(C)[C@H](CC[C@@H]4[C@@]5(C)C=C(C=O)C(=O)C(C)(C)[C@@H]5CC[C@]43C)[C@@H]12 (some centres undefined) active

Others:
Write down the call the test reported for this compound. Item: `Oc1c(Cl)cc(Cl)cc1C(c1cc(Cl)cc(Cl)c1O)C(Cl)(Cl)Cl` inactive

Write down the call the test reported for this compound. Item: Nc1ccc(-c2cccs2)cc1NC(=O)c1ccc(CCCC(=O)Nc2ccc(C3CC3N)cc2)cc1 (centres undefined) inactive

Write down the call the test reported for this compound. Item: `COc1cc(-c2csc(NC(=O)Nc3ccc(C(F)(F)F)cc3)n2)cc(OC)c1OC` inactive

Write down the call the test reported for this compound. Item: `O=C(Nc1cccc(-c2ccc(Cl)c(C(F)(F)F)c2)c1)C1CCN(Cc2cccc3cccnc23)CC1` inactive

* * *

- Test system: DU-145 prostate
- testMethodNotes: NCI tumour cell line growth inhibition, 48 h
Readings of TGI for the listed molecules

Examples from the recorded data:
Value lookup for TGI; key = COc1cc2c(cc1O)C1(Cc3ccc4c(c3C1=O)OCO4)N(C)CC2 (stereo not given) > 100 µM

Value lookup for TGI; key = `CN(CC(=O)Nc1nc2ccccc2[nH]1)S(=O)(=O)c1ccc(Cl)cc1` > 100 µM

Value lookup for TGI; key = `O=C1c2ccccc2-c2c1c1c(O)cccc1n2Cc1ccccn1` > 100 µM

Value lookup for TGI; key = `Cc1cc(N2CCOCC2)nc(N(CCCNc2ccnc3cc(Cl)ccc23)Cc2ccco2)n1` 14.2 µM

Value lookup for TGI; key = `CCN(CC)c1ccc2nc3ccc(N=Nc4c(O)ccc5ccccc45)cc3[n+](-c3ccccc3)c2c1` > 100 µM

Moving on to the next molecule.
Value lookup for TGI; key = `O=C1C=CC(=O)c2c(O)c(Br)c(Br)c(O)c21` 25.9 µM

* * *

- Tested on: SW-620 colon
- testMethodNotes: NCI tumour cell line growth inhibition, 48 h
experimentalEndpoint: GI50

Checklist item: GI50 tested on SW-620 colon, entry `CCCN(CCC)c1ccc(/C=N/NC(=O)c2cccnc2)c(OC)c1` , value? 24.5 µM

Others:
Checklist item: GI50 tested on SW-620 colon, entry `N#Cc1cc(S(=O)(=O)Nc2nnc(-c3ccccc3)c(-c3ccccc3)n2)c(SCc2ccccc2)cc1Cl` , value? 35.5 µM

* * *

- System: SN12C renal
- testMethodNotes: NCI tumour cell line growth inhibition, 48 h
experimentalEndpoint: TGI

Examples from the recorded data:
Value lookup for TGI; key = COc1cc2c(cc1O)C1(Cc3ccc4c(c3C1=O)OCO4)N(C)CC2 (stereo not given) > 100 µM

Value lookup for TGI; key = `CC1=C(/C=C/C(C)=C/C=C/C(C)=C/C(=O)O)C(C)(C)CCC1` 72.1 µM

Value lookup for TGI; key = `Cc1ccc2c(ccc(/C=C\c3cc(C)c4cccnc4c3O)[n+]2C)c1` 24.7 µM

Others:
Value lookup for TGI; key = `CCOC(=O)c1cc(-c2ccccc2)[nH]c1N/N=C/c1ccc(Cl)cc1` > 100 µM

Value lookup for TGI; key = O=C1OC(C2(O)OC(=O)c3ccccc32)c2ccccc21 (stereo not given) > 100 µM

Value lookup for TGI; key = `Cc1ccc(NS(=O)(=O)c2cccc(C#N)c2)c2[nH]cc(C#N)c12` > 94.7 µM

Value lookup for TGI; key = `CN=C(N)c1ccc(N=C(N)c2ccc(C(N)=Nc3ccc(C(N)=NC)cc3)cc2)cc1` > 100 µM

Value lookup for TGI; key = `O=C1c2c(ccc3c2CCC3)CC12Cc1ccccc1C2` > 100 µM

Value lookup for TGI; key = `Oc1c(Cl)cc(Cl)cc1C(c1cc(Cl)cc(Cl)c1O)C(Cl)(Cl)Cl` 13.7 µM

Value lookup for TGI; key = `COc1cc(C2=N/C(=C/c3cccs3)C(=O)O2)cc(OC)c1OC` > 100 µM

* * *

- Tested on: SN12C renal
- testMethodNotes: NCI tumour cell line growth inhibition, 48 h
experimentalEndpoint: TGI

Examples from the recorded data:
Value lookup for TGI; key = `O=C1/C(=C/c2ccc(Cl)cc2)CCC/C1=C\c1ccc(Cl)cc1` > 100 µM

Value lookup for TGI; key = CC(C(N)C(=O)NC(C(=O)O)C1OC(n2ccc(=O)[nH]c2=O)C(O)C1O)C(O)c1ccc(O)cn1 (stereo not given) > 100 µM

Value lookup for TGI; key = `OCc1cc2ccncc2c2c1[nH]c1ccccc12` 30.3 µM

Value lookup for TGI; key = `COc1cccc(Nc2nc(N)nc(N)c2N)c1` 37.8 µM

Value lookup for TGI; key = `Clc1ccc(OCc2nnc3sc(-c4ccc(-c5ccc(Cl)cc5Cl)o4)nn23)cc1` > 100 µM

Value lookup for TGI; key = `CCS(=O)(=O)CCn1c(=O)c2c(ncn2C)n(C)c1=O` > 100 µM

Value lookup for TGI; key = `COc1cc2nccc(Oc3ccc(NC(=O)Nc4cc(C)on4)c(Cl)c3)c2cc1OC` > 100 µM

Value lookup for TGI; key = CN(C)c1ccc(C2CC(c3ccc4ccccc4c3O)=NN2c2ccc([N+](=O)[O-])cc2[N+](=O)[O-])cc1 (stereo not given) > 100 µM

Others:
Value lookup for TGI; key = `Cc1ccnc2[nH]c(-c3ccc(F)cc3)cc(=O)c12` > 100 µM

Value lookup for TGI; key = C=C1C(=O)OC2C3C(=C)[C@@H](OC(C)=O)CC3C(C)=CC(OC(=O)C(C)(OC(C)=O)C(C)OC(C)=O)[C@@H]12 (stereo not given in full) 29.5 µM

Hey, just so you know, these numbers are from PubChem BioAssay (NCI).
